I'd be grateful if you could share measured pIC50 for these entries.
target: [35S]-TBPS binding, rat brain cortical membranes; experiment: Steroid inhibition of [35S]-TBPS binding; settings: 3 nM [35S]-TBPS, in the presence of 5 mM GABA
pIC50: −log10 of the molar value.

Sample answers from the record:
{"smiles notation": "CC[C@@]1(O)CC[C@H]2[C@@H](CC[C@@H]3[C@@H]2CC[C@]2(C)[C@@H]([C@H](C)Cn4nnnc4C)CC[C@@H]32)C1", "pIC50": "≤ 5.00"}
{"smiles notation": "CCOC[C@@]1(O)CC[C@@]2(C)[C@H](CC[C@@H]3[C@@H]2CC[C@]2(C)[C@@H]([C@@H](CC)Nc4ccc(C#N)nc4)CC[C@@H]32)C1", "pIC50": "6.00 to 7.00"}

Batch: pIC50 for all items listed.
1. COC[C@@]1(O)CC[C@H]2[C@H](CC[C@@H]3[C@@H]2CC[C@@]2(C)[C@H]3CC[C@]2(O)[C@@H](C)Cn2cc(C#N)cn2)C1
2. C[C@H](Cn1cc(C#N)cn1)[C@H]1CC[C@H]2[C@@H]3CC[C@@H]4C[C@@](O)(CC5CC5)CC[C@@H]4[C@H]3CC[C@]12C
3. COC[C@@]1(O)CC[C@H]2[C@H](CC[C@@H]3[C@@H]2CC[C@]2(C)[C@@H]([C@@H](C)Nc4cccc(C#N)c4)CC[C@@H]32)C1

Found:
1. 5.00 to 6.00
2. > 7.00
3. > 7.00
